The following compounds are listed with their measured growth values.
System: SNB-75 CNS
Test: NCI-60 one-dose screen, 48 h (100 = growth as untreated, 0 = no growth, -100 = all killed)
Details: 10 µM unless noted
This is part of a sample that, as a whole, favours compounds with a hit. Of some 83,000 tested, about 20% had one in any assay.
measure: growth (%)

[[record]]
compound = "CN1C(=O)NC(Cc2c[nH]c3c(Cl)cccc23)C1=O (configuration not stated)"
target_or_system = "SNB-75 CNS"
measure = "growth"
measured_value = 103

[[record]]
compound = "NC(N)=NC1CCCCC1"
target_or_system = "SNB-75 CNS"
measure = "growth"
measured_value = 107

[[record]]
compound = "CCCCCCCC/C=C/CCCCCCCC1=NC(C)(C)CN1C(C)C"
target_or_system = "SNB-75 CNS"
measure = "growth"
measured_value = 25.5

[[record]]
compound = "CCOC(=O)c1cnc(SCC)nc1SC#N"
target_or_system = "SNB-75 CNS"
measure = "growth"
measured_value = 93.1

[[record]]
compound = "C=C1C[C@@]2(C)C(CC[C@]3(C)C2CC=C2C4CC(C)(C)C[C@@H](OC(=O)/C(C)=C\\C)[C@]4(C(=O)O)CC[C@]23C)C(C)(C)C1=O (some centres not stated)"
target_or_system = "SNB-75 CNS"
measure = "growth"
measured_value = 52.5

[[record]]
compound = "O/N=C1\\c2ccccc2-c2ccc(Br)cc21"
target_or_system = "SNB-75 CNS"
measure = "growth"
measured_value = 107

[[record]]
compound = "COc1cc(C2CC(c3ccccc3)=NN2C=O)ccc1Oc1ccnc2cc(Cl)ccc12 (configuration not stated)"
target_or_system = "SNB-75 CNS"
measure = "growth"
measured_value = 69.9

[[record]]
compound = "COc1cc(/C=C2\\CN(C(=O)OC(C)(C)C)C/C(=C\\c3ccc(O)c(OC)c3)C2=O)ccc1O"
target_or_system = "SNB-75 CNS"
measure = "growth"
measured_value = 94.8

[[record]]
compound = "COc1cc2ncnc(Nc3ccc(S(=O)(=O)Nc4nccs4)cc3)c2cc1OCCCN1CCOCC1"
target_or_system = "SNB-75 CNS"
measure = "growth"
measured_value = 95.1

[[record]]
compound = "Nc1c(C(=O)C[C@@H](N)CO)ccc2c1C(=O)CCO2"
target_or_system = "SNB-75 CNS"
measure = "growth"
measured_value = 86.2

[[record]]
compound = "COc1ccc(CNc2c3ccccc3nc3ccccc23)cc1F"
target_or_system = "SNB-75 CNS"
measure = "growth"
measured_value = 42.5

[[record]]
compound = "O=C(c1ccc(OCCN2CCCCC2)cc1)c1c(-c2ccc(O)cc2)sc2cc(O)ccc12"
target_or_system = "SNB-75 CNS"
measure = "growth"
measured_value = 53.5

[[record]]
compound = "O=C1OCC2=C1C(c1ccccc1)c1cc3c(cc1N2CCO)OCO3 (configuration not stated)"
target_or_system = "SNB-75 CNS"
measure = "growth"
measured_value = 31.4

[[record]]
compound = "CCCCc1nc(Cl)c(C2CC(c3ccc(S(N)(=O)=O)cc3)=NN2c2ccc(C#N)cc2)[nH]1 (configuration not stated)"
target_or_system = "SNB-75 CNS"
measure = "growth"
measured_value = 87.5

[[record]]
compound = "CN1CCC2(CC1)N=C(SCC(=O)Nc1cnc3ccccc3c1)C(c1ccc(Br)cc1)=N2"
target_or_system = "SNB-75 CNS"
measure = "growth"
measured_value = 25.4

[[record]]
compound = "COc1ccc(C(=O)O)cc1.[Ag]"
target_or_system = "SNB-75 CNS"
measure = "growth"
measured_value = 110

[[record]]
compound = "COc1ccc(C2c3cccn3-c3ccccc3N2C(C)=O)cc1 (configuration not stated)"
target_or_system = "SNB-75 CNS"
measure = "growth"
measured_value = 77.4

[[record]]
compound = "O=C(CCl)N1c2ccccc2Oc2ccc3ccccc3c21"
target_or_system = "SNB-75 CNS"
measure = "growth"
measured_value = 22.1

[[record]]
compound = "CCNC(=O)c1ccc2c(c1)nc(-c1ccc(Cl)cc1)n2-c1cc(C(C)(C)C)[nH]n1"
target_or_system = "SNB-75 CNS"
measure = "growth"
measured_value = 34.2

[[record]]
compound = "CCCCCCCCCCCCCC"
target_or_system = "SNB-75 CNS"
measure = "growth"
measured_value = 72.4

[[record]]
compound = "NS(=O)(=O)c1ccc(CCn2c(SCC(=O)N/N=C/c3cccnc3)nc3ccccc3c2=O)cc1"
target_or_system = "SNB-75 CNS"
measure = "growth"
measured_value = 90.8

[[record]]
compound = "COc1cnc2c(c1)C(=O)c1c-2n(CCCNC(C)C)c(=O)c2cc(Cl)ccc12"
target_or_system = "SNB-75 CNS"
measure = "growth"
measured_value = 10.4

